Recorded values, source patent US20240301319A1.

experiment: Volatility of perfuming compounds (Tables 4 to 10), with top/middle/bottom note type; format: physicochemical; settings: Table 7, citrus note; top, middle or bottom note
measured-attribute: Type

Some entries whose results are on file:
C=CCCCCCCCCO : Bottom
CCCCC/C(C=O)=C\c1ccccc1 [(E)-2-PENTYL-3-PHENYL-2-PROPENAL] : Bottom
CCCCCCOC(=O)c1ccccc1O [HEXYL 2-HYDROXYBENZOATE] : Bottom
CC(=O)OC(c1ccccc1)C(Cl)(Cl)Cl (racemic) : Bottom

# evaluate next
Reported Type ( CCCCCCCCOC(C)=O [octyl acetate] ) = Top

---

experiment: Volatility of perfuming compounds (Tables 4 to 10), with top/middle/bottom note type; type: physicochemical; conditions: Table 6, perfuming compounds having a fruity note; note type by volatility
measured-attribute: Type

O=C1CCCCCCC/C=C/CCCCCCO1 [(10E)-oxacycloheptadec-10-en-2-one] : Bottom
CCC(=O)OC/C=C/c1ccccc1 [(E)-3-PHENYL-2-PROPENYL PROPANOATE] : Bottom

---

Reported values of Odor Threshold (μg/l air) for individual entries
test: Odor threshold and odor value of perfuming compounds (Tables 4 to 10); details: Table 4, watery note
Give just the number in μg/l air; leave the unit off.

// below: answered compounds
C=CCCCCCCCCC=O [10-undecenal] : 3.15E−03
CCCCCC#CC(=O)OC [METHYL 2-OCTYNOATE″] : 8.31E−04
CC(C)=CCCC1=CCC(C)(C=O)CC1 (racemic) : 2.72E−02

Value of Odor Threshold (μg/l air) reported for the compound CC(C=O)Cc1ccc(C(C)(C)C)cc1 (racemic) is 2.39E−04

The reported value for CC(C)=CCCC(C)C=O (racemic) in terms of Odor Threshold (μg/l air) is 2.11E−04

// field: Odor Threshold (μg/l air); key: COC(=O)c1c(C)cc(O)c(C)c1O ; value = 4.89E−06

---

Readings of Volatility (μg/l air) for the listed substances
experiment: Volatility of perfuming compounds (Tables 4 to 10), with top/middle/bottom note type; assay type: physicochemical; conditions: Table 7, citrus note
Dear colleague, please return just the value in μg/l air, with no unit written.

Guide cases for Volatility (μg/l air), answers given:
ALLYL (3-METHYLBUTOXY)ACETATE (A) + (+−)-ALLYL (2-METHYLBUTOXY)ACETATE (B) : 261.90
(Z)-3,7-DIMETHYL-1,6-NONADIEN-3-OL (A) + (E)-3,7-DIMETHYL-1,6-NONADIEN-3-OL (B) : 283.43

Recorded result, (Z)-3,7-DIMETHYL-2,6-OCTADIENAL (A) + (E)-3,7-DIMETHYL-2,6-OCTADIENAL (B) , Volatility (μg/l air): 202.66

Record summary for 8(9)-METHOXY-TRICYCLO[5.2.1.0(2,6)]DECANE-3(4)-CARBALDEHYDE : reported Volatility (μg/l air) = 5.87

---

experiment: Volatility of perfuming compounds (Tables 4 to 10), with top/middle/bottom note type; format: physicochemical; conditions: Table 6, perfuming compounds having a fruity note; note type by volatility
measured-attribute: Type

CC(=O)OC/C=C/c1ccccc1 [(E)-3-PHENYL-2-PROPENYL ACETATE] : Bottom
CC(=O)OC(c1ccccc1)C(Cl)(Cl)Cl (racemic) : Bottom
CC(=O)CCc1ccc(O)cc1 [4-(4-HYDROXY-1-PHENYL)-2-BUTANONE] : Bottom
